- Test system: IGROV1 ovarian
- assay: NCI tumour cell line growth inhibition, 48 h
value type: TGI

Please report TGI for the following compound: Cc1cc(S(=O)(=O)N=C2N(Cc3ccccc3)CCN2Cc2ccccc2)c(S)cc1Cl
> 100 µM

Please report TGI for the following compound: COc1ccc(C(=C(Cl)c2ccccc2)c2ccc(OC)cc2)cc1
> 100 µM

Please report TGI for the following compound: CN1CCC(O)(C(C)(C)C)CC1
> 100 µM

Please report TGI for the following compound: CCOC(=O)c1c(C)n(Cc2ccc(Cl)cc2Cl)c2c1c(CN(C)C)c(O)c1[nH]cnc12
31.5 µM

Please report TGI for the following compound: O=C(O)c1ccc([N+](=O)[O-])c2cc3cnccc3nc12
> 100 µM

Please report TGI for the following compound: N#CCN1C(=O)c2cccc3cc([N+](=O)[O-])cc(c23)C1=O
> 100 µM

Please report TGI for the following compound: CCOC(=O)[C@@H](N)CCC(=O)N[C@@H](CSCc1ccccc1)C(=O)N[C@@H](C(=O)OCC)c1ccccc1
36.4 µM

Please report TGI for the following compound: Cc1ccn2c(c1)nc1nc3ccccc3nc12
> 100 µM

Please report TGI for the following compound: COC1(OC)C2(Cl)C(Cl)=C(Cl)C1(Cl)C1C=CC=CC12 (stereo not given)
> 100 µM

Please report TGI for the following compound: CCCN1CCC(=O)N(CCC(F)(F)C(F)(F)C(F)(F)C(F)(F)C(F)(F)C(F)(F)F)C1=S
> 100 µM
